experimental-system: Aurora A kinase (Homo sapiens, UniProt O14965)
Sequence (O14965 whole entry): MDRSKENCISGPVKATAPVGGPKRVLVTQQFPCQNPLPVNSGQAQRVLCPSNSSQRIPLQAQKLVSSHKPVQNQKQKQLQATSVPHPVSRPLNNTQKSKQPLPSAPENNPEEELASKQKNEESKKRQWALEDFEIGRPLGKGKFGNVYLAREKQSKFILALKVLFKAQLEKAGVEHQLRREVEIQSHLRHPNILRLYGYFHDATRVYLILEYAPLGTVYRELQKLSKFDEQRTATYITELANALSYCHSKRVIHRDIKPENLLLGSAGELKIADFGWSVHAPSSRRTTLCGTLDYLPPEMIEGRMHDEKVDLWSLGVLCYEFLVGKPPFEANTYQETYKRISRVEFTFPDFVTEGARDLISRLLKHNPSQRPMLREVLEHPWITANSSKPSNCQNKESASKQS
protocol-text: Assay for the inhibiting activity of kinase (Glo Plus / ADP Glo / Caliper), Aurora A
Type: biochemical
measurement-setup: kinase inhibition, incubated at 30° C. for 1 hour
Listed here: items and their measured IC50.
readout: IC50 (µM)

Cc1cc(Nc2nc(Nc3cc(NC(=O)Nc4ccc(Cl)c(C(F)(F)F)c4)ccc3C)ncc2N)n[nH]1
2.1
Cc1cc(Nc2ccnc(Nc3cc(NC(=O)Nc4ccc(Cl)c(C(F)(F)F)c4)ccc3C)n2)n[nH]1
2.68
COc1cnc(Nc2cc(NC(=O)Nc3ccc(Cl)c(C(F)(F)F)c3)ccc2C)nc1Nc1cc(C)[nH]n1
0.34
Cc1cc(Nc2nc(Nc3cc(NC(=O)Nc4ccc(Cl)c(C(F)(F)F)c4)ccc3C)ncc2C)n[nH]1
0.14
Cc1cc(Nc2nc(Nc3cc(NC(=O)Nc4ccc(Cl)c(C(F)(F)F)c4)ccc3C)ncc2F)n[nH]1
0.78
